For each of the binders below, state its pKd.
assay-system: DLG1_2, Q12959
Sequence (Q12959 314-412): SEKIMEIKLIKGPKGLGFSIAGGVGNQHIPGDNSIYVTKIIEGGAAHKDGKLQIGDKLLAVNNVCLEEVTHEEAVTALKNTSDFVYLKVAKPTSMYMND
assay-details: holdup assay
Set-up: key: below the threshold = too weak to quantify, mostly under pKd 3.1 to 4
protocol-conditions: plain residues with an end cap or a label only (N-terminal biotin on a linker: ado-ado)
Number only, no unit.

Q: Query: pKd; subject: VLYPREGTEV [FOXI1, Q12951]
A: 4.84

Q: Query: pKd; subject: LESTTVGTSV [KARS1, Q15046]
A: 4.34

Q: Query: pKd; subject: SFISKKEWYV [NECTIN1, Q15223]
A: 3.77

Q: Query: pKd; subject: KPGKGSETVV [FZD4, Q9ULV1]
A: 5.12

Q: Query: pKd; subject: RFQQRMQTHV [KIRREL1, Q96J84]
A: 4.74

Q: Query: pKd; subject: DTKNYKQTSV [CRIPT, Q9P021]
A: 5.07

Q: Query: pKd; subject: NISYRRESAI [KCNJ4, P48050]
A: 4.48

Q: Query: pKd; subject: KRPEMTSSSV [MUC3B, MUC3A, Q02505;Q9H195]
A: 4.06

Q: Query: pKd; subject: PTPDLPQTRV [KLHDC7A, Q5VTJ3]
A: 3.53

Q: Query: pKd; subject: APIAGFSSFV [SDK2, Q58EX2]
A: 4.45

Q: Query: pKd; subject: ELSATVTTDC [TRIP6, Q15654]
A: 3.67

Q: Query: pKd; subject: ILRKSTTTTV [PRR16, Q569H4]
A: 5.43

All values here come from paper PMC9482650.
